- system.name: human p38 kinase alpha (Homo sapiens, UniProt Q16539)
- Construct: GST (N, cleaved yes); made in house; host or cells: E. coli DH10B
- Sequence (Q16539 whole entry): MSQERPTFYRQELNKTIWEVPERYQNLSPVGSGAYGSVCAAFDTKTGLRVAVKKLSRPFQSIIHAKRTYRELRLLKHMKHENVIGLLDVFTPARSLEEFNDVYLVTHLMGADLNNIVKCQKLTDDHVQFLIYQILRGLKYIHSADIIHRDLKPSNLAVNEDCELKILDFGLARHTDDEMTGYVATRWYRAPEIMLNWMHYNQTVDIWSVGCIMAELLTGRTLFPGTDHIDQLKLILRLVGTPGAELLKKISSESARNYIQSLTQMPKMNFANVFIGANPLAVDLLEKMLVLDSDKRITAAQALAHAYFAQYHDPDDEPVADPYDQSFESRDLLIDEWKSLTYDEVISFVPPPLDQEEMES
- procedure.details: p38 kinase in vitro assay, phosphorylation of biotinylated PHAS-I with 32P-ATP
- Assay type: biochemical
- condition.description: in vitro P38-alpha kinase; read-out: P38 alpha kinase IC50
I'd appreciate it if you could supply pIC50 values for the items below.
Numbers only, as −log10 of the molar value.

Look at each compound and report its pIC50.
1. O=S(=O)(c1cccc(Cl)c1)N1CCC(c2[nH]nc(-c3ccc(F)cc3)c2-c2ccncc2)CC1 [Example B-1465]
2. Cc1noc(C)c1C(=O)NCCCc1[nH]nc(-c2ccc(F)cc2)c1-c1ccncc1 [Example B-1358]

Response:
1. 5.49
2. 6.80

Look at each compound and report its pIC50.
1. COc1ccc(C(=O)N2CCC(c3[nH]nc(-c4ccc(F)cc4)c3-c3ccncc3)CC2)cc1 [Example B-1391]
2. O=S(=O)(c1ccc(-c2ccon2)s1)N1CCC(c2[nH]nc(-c3ccc(F)cc3)c2-c2ccncc2)CC1 [Example B-1440]
3. O=C(O)c1ccccc1S(=O)(=O)NCc1[nH]nc(-c2ccc(F)cc2)c1-c1ccncc1 [Example B-0228]
4. CC(C)c1cc(C(C)C)c(C(=O)NCCCc2[nH]nc(-c3ccc(F)cc3)c2-c2ccncc2)c(C(C)C)c1 [Example B-1326]

Response:
1. 7.80
2. 6.06
3. 6.82
4. 7.04

###

- system.name: human p38 kinase alpha (Homo sapiens)
- Construct: GST (N, cleaved yes); made in house; host or cells: E. coli DH10B
- procedure.details: p38 kinase in vitro assay, phosphorylation of biotinylated PHAS-I with 32P-ATP
- Type: biochemical
- condition.description: in vitro P38-alpha kinase inhibition; read-out: P38 alpha kinase IC50
I'd appreciate it if you could supply IC50 values for the items below.
Answers are plain numbers, in nM.

Some molecules with recorded IC50:
CNC(=O)CCC(NS(=O)(=O)c1ccccc1F)c1[nH]nc(-c2ccc(F)cc2)c1-c1ccncc1 (stereo not drawn)	870
Cc1cccc(C(=O)NCCc2[nH]nc(-c3ccc(F)cc3)c2-c2ccncc2)c1	170
O=C(NCCc1[nH]nc(-c2ccc(F)cc2)c1-c1ccncc1)c1cc(F)cc(F)c1	500
COc1cccc(CC(=O)NC(Cc2ccccc2)c2[nH]nc(-c3ccc(F)cc3)c2-c2ccncc2)c1 (stereo not drawn) [Example B-0849]	1250
O=C(NC(Cc1ccccc1)c1[nH]nc(-c2ccc(F)cc2)c1-c1ccncc1)c1ccno1 (stereo not drawn) [Example B-0840]	630
COc1ccc(NC(=O)NC(Cc2ccccc2)c2[nH]nc(-c3ccc(F)cc3)c2-c2ccncc2)c(OC)c1 (stereo not drawn) [Example B-0789]	33000
O=C(Nc1ccc(F)cc1)NC(Cc1ccccc1)c1[nH]nc(-c2ccc(F)cc2)c1-c1ccncc1 (stereo not drawn) [Example B-0773]	14000
O=C(Cc1cccs1)NC(Cc1ccccc1)c1[nH]nc(-c2ccc(F)cc2)c1-c1ccncc1 (stereo not drawn) [Example B-0745]	6000

Look at each molecule and report its IC50.
1. CC(NS(=O)(=O)c1cccc2c(N(C)C)cccc12)c1[nH]nc(-c2ccc(F)cc2)c1-c1ccncc1 (stereo not drawn)
2. O=C(NCCc1[nH]nc(-c2ccc(F)cc2)c1-c1ccncc1)c1cccc2ccccc12
3. CNC(=O)CCC(NC(=O)NC)c1[nH]nc(-c2ccc(F)cc2)c1-c1ccncc1 (stereo not drawn)
4. CC(NC(=O)c1ccc(F)c(F)c1F)c1[nH]nc(-c2ccc(F)cc2)c1-c1ccncc1 (stereo not drawn)

Response:
1. 360
2. 2550
3. 150
4. 1040

The recorded IC50 for entry CC(C)c1cc(C(C)C)c(C(=O)NC(C)c2[nH]nc(-c3ccc(F)cc3)c2-c2ccncc2)c(C(C)C)c1 (stereo not drawn) [Example B-0497] equals 440

###

- system.name: human p38 kinase alpha (Homo sapiens)
- Construct: GST (N, cleaved yes); made in house; host or cells: E. coli DH10B
- procedure.details: p38 kinase in vitro assay, phosphorylation of biotinylated PHAS-I with 32P-ATP
- Assay type: biochemical
- condition.description: @ 100.0 uM
metric.name: P38 alpha kinase IC50, uM or % inhib @ conc. (uM): % inhib

Cc1cc(Cl)ccc1OCC1SCCN1C(=O)Cn1nc(-c2ccc(F)cc2)c(-c2ccncc2)c1C (stereo not shown)	47% @

Look at each compound and report its P38 alpha kinase IC50, uM or % inhib @ conc. (uM): % inhib.
1. CCN(CC)CCN(Cc1ccc(Cl)cc1)C(=O)Cn1nc(-c2ccc(F)cc2)c(-c2ccncc2)c1C
2. Cc1c(-c2ccncc2)c(-c2ccc(F)cc2)nn1CC(=O)N(C)CCCC1c2ccccc2CCc2ccccc21
3. Cc1c(-c2ccncc2)c(-c2ccc(F)cc2)nn1CC(=O)N1CCCCC1CCN1CCCCC1 (stereo not shown)
4. CCN(CC)CCN(CCN(CC)CC)C(=O)Cn1nc(-c2ccc(F)cc2)c(-c2ccncc2)c1C
5. Cc1c(-c2ccncc2)c(-c2ccc(F)cc2)nn1CC(=O)N(CCC#N)CC1CCCO1 (stereo not shown)

Response:
1. 55% @
2. 50.0% @
3. 26% @
4. 47% @
5. 58% @

The recorded P38 alpha kinase IC50, uM or % inhib @ conc. (uM): % inhib for entry COc1ccc(CCN(CCC#N)C(=O)Cn2nc(-c3ccc(F)cc3)c(-c3ccncc3)c2C)cc1OC equals 72% @

###

I'd appreciate it if you could supply P38 alpha kinase % inhib @ conc. (uM) values for the items below.
- system.name: human p38 kinase alpha (Homo sapiens)
- Construct: GST (N, cleaved yes); made in house; host or cells: E. coli DH10B
- procedure.details: p38 kinase in vitro assay, phosphorylation of biotinylated PHAS-I with 32P-ATP
- Assay type: biochemical
- condition.description: @ 1.0 uM
Give bare numbers, in % @.

O=C(NCCc1[nH]nc(-c2ccc(F)cc2)c1-c1ccncc1)C1CCC1	72.0
COc1ccc(S(=O)(=O)NCCc2[nH]nc(-c3ccc(F)cc3)c2-c2ccncc2)cc1OC	70.0
CC(C)COC(=O)NCCCc1[nH]nc(-c2ccc(F)cc2)c1-c1ccncc1	76.0
COc1ccc(S(=O)(=O)NCCc2[nH]nc(-c3ccc(F)cc3)c2-c2ccncc2)cc1	61.0
CCCS(=O)(=O)NCCc1[nH]nc(-c2ccc(F)cc2)c1-c1ccncc1	82.0
O=C(NCCCc1[nH]nc(-c2ccc(F)cc2)c1-c1ccncc1)C1CCC1	66.0
O=S(=O)(NCCc1[nH]nc(-c2ccc(F)cc2)c1-c1ccncc1)C(F)(F)F	82.0
O=C(Cc1cccs1)NCCc1[nH]nc(-c2ccc(F)cc2)c1-c1ccncc1	68.0
CCCOC(=O)NCCc1[nH]nc(-c2ccc(F)cc2)c1-c1ccncc1	78.0
O=C(NCCc1[nH]nc(-c2ccc(F)cc2)c1-c1ccncc1)C1CCCC1	79.0

Look at each molecule and report its P38 alpha kinase % inhib @ conc. (uM).
1. COc1cccc(CC(=O)NCCCc2[nH]nc(-c3ccc(F)cc3)c2-c2ccncc2)c1
2. COCC(=O)NCCCc1[nH]nc(-c2ccc(F)cc2)c1-c1ccncc1

Response:
1. 92.0
2. 78.0

Look at each molecule and report its P38 alpha kinase % inhib @ conc. (uM).
1. O=S(=O)(NCCc1[nH]nc(-c2ccc(F)cc2)c1-c1ccncc1)c1ccc(F)cc1F
2. O=C(NCCc1[nH]nc(-c2ccc(F)cc2)c1-c1ccncc1)c1ccno1

Response:
[88.0, 77.0]

###

I'd appreciate it if you could supply inhibition at 1 µM values for the items below.
- system.name: human p38 kinase alpha (Homo sapiens, UniProt Q16539)
- Construct: GST (N, cleaved yes); made in house; host or cells: E. coli DH10B
- procedure.details: p38 kinase in vitro assay, phosphorylation of biotinylated PHAS-I with 32P-ATP
- Type: biochemical
- condition.description: @ 1.0 uM; read-out: P38 alpha kinase % inhib @ conc.
Give bare numbers, in %.

Some molecules with recorded inhibition at 1 µM:
COc1cccc(CC(=O)NCc2[nH]nc(-c3ccc(F)cc3)c2-c2ccncc2)c1	93
O=C(NCc1[nH]nc(-c2ccc(F)cc2)c1-c1ccncc1)c1ccc(F)c(F)c1F	96
O=C(NCc1[nH]nc(-c2ccc(F)cc2)c1-c1ccncc1)c1c(Cl)cc(Cl)cc1Cl	84

Look at each molecule and report its inhibition at 1 µM.
1. COCC(=O)NCc1[nH]nc(-c2ccc(F)cc2)c1-c1ccncc1
2. N#Cc1cccc(C(=O)NCc2[nH]nc(-c3ccc(F)cc3)c2-c2ccncc2)c1
3. O=C(NCc1[nH]nc(-c2ccc(F)cc2)c1-c1ccncc1)C(c1ccccc1)c1ccccc1
4. O=C(NCc1[nH]nc(-c2ccc(F)cc2)c1-c1ccncc1)c1ccc([N+](=O)[O-])cc1
5. O=C(NCc1[nH]nc(-c2ccc(F)cc2)c1-c1ccncc1)C(=O)c1c[nH]c2ccccc12

Response:
70
90
94
69
60
